All values here come from ChEMBL document CHEMBL4673231.

# System: Salmonella typhi
# protocol.text: Antibacterial activity against Salmonella typhi ATCC 9207 by CLSI method
# Type: functional, Salmonella enterica subsp. enterica serovar Typhi
# test.parameters: Salmonella enterica
Rule: MIC below 200 µg/mL gives y. Equal to or above 200 µg/mL gives n.

INSERT INTO results (structure_as_smiles, label_class) VALUES
  ('O=C(N/N=C/c1cc([N+](=O)[O-])ccc1OCc1cn(-c2ccccc2Cl)nn1)c1ccncc1', 'y'),
  ('CN(C)[C@@H]1C(O)=C(C(N)=O)C(=O)[C@@]2(O)C(O)=C3C(=O)c4c(O)cccc4[C@@](C)(O)[C@H]3C[C@@H]12', 'y'),
  ('Cc1ccccc1-n1cc(COc2ccc([N+](=O)[O-])cc2/C=N/NC(=O)c2ccncc2)nn1', 'n'),
  ('COc1ccccc1-n1cc(COc2ccc([N+](=O)[O-])cc2/C=N/NC(=O)c2ccncc2)nn1', 'n'),
  ('O=C(N/N=C/c1cc([N+](=O)[O-])ccc1OCc1cn(-c2cccc(Cl)c2)nn1)c1ccncc1', 'y'),
  ('COc1ccc(-n2cc(COc3ccc([N+](=O)[O-])cc3/C=N/NC(=O)c3ccncc3)nn2)cc1', 'n');

---

Entries annotated with measured zone of inhibition at 1000 µg/mL
# Test system: Klebsiella aerogenes
# protocol.text: Antibacterial activity against Enterobacter aerogenes assessed as diameter of inhibition zone at 1 mg/ml incubated for 24 hrs by agar well diffusion assay
# Format: functional
# test.parameters: read-out: DIZ
quantity.kind: zone of inhibition at 1000 µg/mL (mm)

INSERT INTO measurements (molecule, quantity_kind, numeric_result) VALUES
  ('Cc1cccc(-n2cc(COc3ccc([N+](=O)[O-])cc3/C=N/NC(=O)c3ccncc3)nn2)c1', 'zone of inhibition at 1000 µg/mL', 8),
  ('O=C(N/N=C/c1cc([N+](=O)[O-])ccc1OCc1cn(-c2ccccc2Cl)nn1)c1ccncc1', 'zone of inhibition at 1000 µg/mL', 10),
  ('COc1ccc(-n2cc(COc3ccc([N+](=O)[O-])cc3/C=N/NC(=O)c3ccncc3)nn2)cc1', 'zone of inhibition at 1000 µg/mL', 14),
  ('O=C(N/N=C/c1cc([N+](=O)[O-])ccc1OCc1cn(-c2ccc(Br)cc2)nn1)c1ccncc1', 'zone of inhibition at 1000 µg/mL', 12),
  ('Cc1ccccc1-n1cc(COc2ccc([N+](=O)[O-])cc2/C=N/NC(=O)c2ccncc2)nn1', 'zone of inhibition at 1000 µg/mL', 10),
  ('COc1cccc(-n2cc(COc3ccc([N+](=O)[O-])cc3/C=N/NC(=O)c3ccncc3)nn2)c1', 'zone of inhibition at 1000 µg/mL', 6),
  ('O=C(N/N=C/c1cc([N+](=O)[O-])ccc1OCc1cn(-c2ccccc2F)nn1)c1ccncc1', 'zone of inhibition at 1000 µg/mL', 10),
  ('COc1ccccc1-n1cc(COc2ccc([N+](=O)[O-])cc2/C=N/NC(=O)c2ccncc2)nn1', 'zone of inhibition at 1000 µg/mL', 12),
  ('CN(C)[C@@H]1C(O)=C(C(N)=O)C(=O)[C@@]2(O)C(O)=C3C(=O)c4c(O)cccc4[C@@](C)(O)[C@H]3C[C@@H]12 [TETRACYCLINE]', 'zone of inhibition at 1000 µg/mL', 24),
  ('O=C(N/N=C/c1cc([N+](=O)[O-])ccc1OCc1cn(-c2cccc(Cl)c2)nn1)c1ccncc1', 'zone of inhibition at 1000 µg/mL', 13),
  ('O=C(N/N=C/c1cc([N+](=O)[O-])ccc1OCc1cn(-c2ccccc2)nn1)c1ccncc1', 'zone of inhibition at 1000 µg/mL', 14);
